test: Toxicity liver stage against HepG2, at 10uM; type: cell-based; parameters: test concentration 10 uM, cell line HepG2-A16-CD81EGFP; details: human, HepG2-A16-CD81EGFP cells; read-out: INHIBITION
# cytotoxicity at 10 µM per entry
The reply should be a number in %, with the unit left off.

Consider the reported cytotoxicity at 10 µM for these compounds:
[[record]]
compound = "NC1(c2nc(-c3cccs3)cc(=O)[nH]2)CCCCC1"
reading = 6.03

[[record]]
compound = "O=C(c1ccncc1)N1CCN(c2ccc(F)cc2Cl)CC1"
reading = -140


Ask: Return cytotoxicity at 10 µM for the following compound: O=C(NCCO)Nc1c(F)cccc1Oc1ccccc1
Reply: 1.36

Ask: Return cytotoxicity at 10 µM for the following compound: Cc1nc(N(C)C)nc(C)c1NS(=O)(=O)c1ccc(F)cc1F
Reply: -3.58

Ask: Return cytotoxicity at 10 µM for the following compound: Cc1nc(CN(C)Cc2nc(-c3ccccc3)no2)co1
Reply: -1.86

Ask: Return cytotoxicity at 10 µM for the following compound: CC(=O)N1C[C@H]2CCCN(c3ncc(C)cn3)[C@H]2C1
Reply: 9.52

Ask: Return cytotoxicity at 10 µM for the following compound: CCCS(=O)(=O)CC(=O)N1CCN(CC2CC2)c2ccccc21
Reply: -7.44
